Cited source: PubChem BioAssay (NCATS)

- System: ATS189
- run.description: qHTS profiling for inhibitors of Plasmodium falciparum proliferation (AID 504749); note: nearly all actives have a fitted effect of over 60% in size
- condition.details: P. falciparum in erythrocytes, SYBR Green DNA, 72 h; series mostly up to 28.7 µM
Records with an inconclusive call do not appear. Active and inactive are the calls of the source. Calls come from the whole dose curve; as a rule, active = well fitted inhibition curve with a large enough effect; inconclusive = small, poorly fitted or top-dose-only effect; inactive = flat fitted curve, though single readings scatter.
Outcomes: true (1) (active), false (0) (inactive)

- compound: "O=C1CC2OCC=C3CN4CCC56c7ccccc7N1C5[C@H]2[C@H]3C[C@H]46 (stereo partly specified) (tested in a mixture with another compound)"
  label.class: "false (0)"
- compound: "COC(=O)C1C(OC(=O)c2ccccc2)CC2CCC1N2C (stereo unspecified)"
  label.class: "false (0)"
- compound: "[S]=[Sb][S][Sb]=[S]"
  label.class: "false (0)"
- compound: "CN1C2CCC1C(C(=O)O)C(OC(=O)c1ccccc1)C2 (stereo unspecified)"
  label.class: "false (0)"
- compound: "CC(CO)NC(=O)C1C=C2c3cccc4[nH]cc(c34)CC2N(C)C1 (stereo unspecified)"
  label.class: "false (0)"
- compound: "Cc1ccc2c(c1)[C@@H]1CN(C)CC[C@H]1N2"
  label.class: "false (0)"
- compound: "OC[C@@H](O)[C@H]1O[C@@H]2OC(C(Cl)(Cl)Cl)O[C@H]2[C@H]1O (stereo partly specified)"
  label.class: "false (0)"
- compound: "CC1OC(O[C@H]2C[C@@H](O)[C@]3(CO)[C@@H]4C(CC[C@]3(O)C2)[C@@]2(O)CC[C@H](C3=CC(=O)OC3)[C@@]2(C)C[C@H]4O)C(O)C(O)C1O (stereo partly specified)"
  label.class: "false (0)"
- compound: "C#C[C@]1(O)CC[C@H]2[C@@H]3CCC4=CC(=O)CCC4(C)[C@H]3CCC21C (stereo partly specified)"
  label.class: "false (0)"
- compound: "CC(C)=CC1C(C(=O)OCc2coc(Cc3ccccc3)c2)C1(C)C (stereo unspecified)"
  label.class: "false (0)"
- compound: "CC12CCC3C4CCC(=O)C(O)=C4CCC3C1CCC2OC(=O)CCC1CCCC1 (stereo unspecified)"
  label.class: "false (0)"
- compound: "CC(=O)Oc1ccc2c3c1OC1[C@@H](OC(C)=O)C=C[C@H]4[C@H](C2)N(C)CC[C@]314 (stereo partly specified)"
  label.class: "false (0)"
- compound: "CC1(C)S[C@@H]2[C@H](N)C(=O)N2C1C(=O)O (stereo partly specified)"
  label.class: "false (0)"
- compound: "CN(C)[C@@H](Cc1ccccc1)c1ccccc1"
  label.class: "false (0)"
- compound: "Cc1cc(C)cc(C(=O)OC2CC3CCC(C2)N3C)c1 (stereo unspecified)"
  label.class: "false (0)"
- compound: "Nc1nc(O)c(-c2ccccc2)o1"
  label.class: "false (0)"
- compound: "C#CC1(O)C=CC2C3CCC4=CC(=O)CCC4C3CCC21CC (stereo unspecified)"
  label.class: "false (0)"
- compound: "CC1(C)[C@@H](C=C(Cl)Cl)[C@@H]1C(=O)OCc1c(F)c(F)cc(F)c1F"
  label.class: "false (0)"
- compound: "CCC/C=C/C=C/C(=O)OC1/C(=C/C(=O)OC)CC2CC(C(C)O)OC(=O)CC(O)CC3CC(OC(C)=O)C(C)(C)C(O)(CC4C/C(=C/C(=O)OC)CC(/C=C\\C(C)(C)C1(O)O2)O4)O3 (stereo unspecified)"
  label.class: "true (1)"
- compound: "COC(C(=O)C(O)C(C)O)C1Cc2cc3cc(OC4CC(OC5CC(O)C(OC)C(C)O5)C(OC(C)=O)C(C)O4)c(C)c(O)c3c(O)c2C(=O)C1OC1CC(OC2CC(OC3CC(C)(O)C(OC(C)=O)C(C)O3)C(O)C(C)O2)C(O)C(C)O1 (stereo unspecified)"
  label.class: "true (1)"
- compound: "NC(Cc1ccc(Oc2cc(I)c(O)c(I)c2)c(I)c1)C(=O)O (stereo unspecified)"
  label.class: "false (0)"

###

- system.name: Cytochrome P450 2D6 (Homo sapiens)
- run.description: qHTS Assay for Inhibitors and Substrates of Cytochrome P450 2D6 (AID 891); note: nearly all actives have a fitted effect of over 60% in size
- condition.details: recombinant CYP2D6, luciferin-ME EGE luminescence; series mostly up to 57.1 µM
Records with an inconclusive call do not appear. The source made the active and inactive calls. Calls come from the whole dose curve; as a rule, active = well fitted inhibition curve with a large enough effect; inconclusive = small, poorly fitted or top-dose-only effect; inactive = no such curve, though single readings can be large or run the other way.
Outcomes: Yes = active, No = inactive

- molecule.smiles: "N[C@]1(C(=O)O)CC[C@@H](C(=O)O)C1"
  label.class: "No"
- molecule.smiles: "C[C@@H](CO)NC(=O)[C@H]1C=C2c3cccc4[nH]cc(c34)C[C@H]2N(C)C1"
  label.class: "Yes"
- molecule.smiles: "C[C@@H]1O[C@H](O[C@H]2C[C@@H](O)[C@]3(CO)[C@H]4[C@H](O)C[C@]5(C)[C@@H](C6=CC(=O)OC6)CC[C@@]5(O)[C@H]4CC[C@]3(O)C2)[C@@H](O)[C@H](O)[C@H]1O"
  label.class: "No"
- molecule.smiles: "C[C@@H](COc1ccccc1)N(CCCl)Cc1ccccc1"
  label.class: "Yes"

###

- run.description: qHTS assay for small molecule antagonists of peroxisome proliferator-activated receptor delta signaling (AID 588535);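 note: cells co-treated with a PPAR-delta agonist as stimulator during compound exposure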
- condition.details: HEK293T PPARd-UAS-bla, beta-lactamase FRET ratio, 18 h; 460 nm channel
Records with an inconclusive call do not appear.
attribute.measured: max response (%)

- compound: "CSC(=O)c1c(C(F)F)nc(C(F)(F)F)c(C(=O)SC)c1CC(C)C"
  attribute.measured: "max response"
  unit.of.measure: "%"
  numeric.value: 97.5
- compound: "CS/C(C)=N/OC(=O)N(C)SN(C)C(=O)O/N=C(\\C)SC"
  attribute.measured: "max response"
  unit.of.measure: "%"
  numeric.value: -23.5
- compound: "CCCSP(=O)(OCC)Oc1ccc(Br)cc1Cl (stereo not given)"
  attribute.measured: "max response"
  unit.of.measure: "%"
  numeric.value: 5.89
- compound: "CC(C)C(C(=O)OC(C#N)c1cccc(Oc2ccccc2)c1)c1ccc(Cl)cc1 (stereo not given)"
  attribute.measured: "max response"
  unit.of.measure: "%"
  numeric.value: -0.258
- compound: "CCC(C)(NC(=O)c1cc(Cl)c(C)c(Cl)c1)C(=O)CCl (stereo not given)"
  attribute.measured: "max response"
  unit.of.measure: "%"
  numeric.value: 31.6
- compound: "CNC(=S)S"
  attribute.measured: "max response"
  unit.of.measure: "%"
  numeric.value: -6.57
- compound: "CCNC(=O)NC(=O)/C(C#N)=N/OC"
  attribute.measured: "max response"
  unit.of.measure: "%"
  numeric.value: 9.94
- compound: "O=[N+]([O-])Nc1nccn1Cc1ccc(Cl)nc1"
  attribute.measured: "max response"
  unit.of.measure: "%"
  numeric.value: 19.2
- compound: "COCC(=O)N(c1c(C)cccc1C)N1CCOC1=O"
  attribute.measured: "max response"
  unit.of.measure: "%"
  numeric.value: -6.17
- compound: "O=[N+]([O-])c1cc(C(F)(F)F)cc([N+](=O)[O-])c1Cl"
  attribute.measured: "max response"
  unit.of.measure: "%"
  numeric.value: 32.3
- compound: "CCCC1COC(Cn2cncn2)(c2ccc(Cl)cc2Cl)O1 (stereo not given)"
  attribute.measured: "max response"
  unit.of.measure: "%"
  numeric.value: 10.7
- compound: "CCOP(=O)(OCC)SCS(=O)(=O)C(C)(C)C"
  attribute.measured: "max response"
  unit.of.measure: "%"
  numeric.value: -7.9
- compound: "C#CCN1CC(=O)N(COC(=O)[C@@H]2[C@@H](C=C(C)C)C2(C)C)C1=O"
  attribute.measured: "max response"
  unit.of.measure: "%"
  numeric.value: -9.7
- compound: "O=P(O)(O)CN(CP(=O)(O)O)CP(=O)(O)O"
  attribute.measured: "max response"
  unit.of.measure: "%"
  numeric.value: 1.59
- compound: "CCOP(=O)(OCC)SCSC(C)(C)C"
  attribute.measured: "max response"
  unit.of.measure: "%"
  numeric.value: 5.82
- compound: "CCC(C)(CC)c1cc(NC(=O)c2c(OC)cccc2OC)on1"
  attribute.measured: "max response"
  unit.of.measure: "%"
  numeric.value: 7.62
- compound: "c1cc(OCC2CO2)cc(OCC2CO2)c1 (stereo not given)"
  attribute.measured: "max response"
  unit.of.measure: "%"
  numeric.value: 21.9
- compound: "COc1cc(OC)nc(NC(=O)NS(=O)(=O)c2ncccc2OCC(F)(F)F)n1"
  attribute.measured: "max response"
  unit.of.measure: "%"
  numeric.value: -5.67
- compound: "O=C(NC(=O)c1c(F)cccc1F)Nc1ccc(OC(F)(F)C(F)OC(F)(F)F)c(Cl)c1 (stereo not given)"
  attribute.measured: "max response"
  unit.of.measure: "%"
  numeric.value: 59.9
- compound: "Nc1cccc(Cl)c1Cl"
  attribute.measured: "max response"
  unit.of.measure: "%"
  numeric.value: 30.5
- compound: "COC(=O)c1ccccc1CS(=O)(=O)NC(=O)Nc1nc(OC)cc(OC)n1"
  attribute.measured: "max response"
  unit.of.measure: "%"
  numeric.value: -1.25
- compound: "CCC[CH2][Sn]([CH2]CCC)([CH2]CCC)[CH2]CCC"
  attribute.measured: "max response"
  unit.of.measure: "%"
  numeric.value: 0.148
- compound: "COC(=O)N(C(=O)N1COC2(C(=O)OC)Cc3cc(Cl)ccc3C2=N1)c1ccc(OC(F)(F)F)cc1 (stereo not given)"
  attribute.measured: "max response"
  unit.of.measure: "%"
  numeric.value: 21
- compound: "CCOP(=S)(OCC)Oc1ncn(-c2ccccc2)n1"
  attribute.measured: "max response"
  unit.of.measure: "%"
  numeric.value: 1.15
- compound: "CCCCCCCCCCCC#N"
  attribute.measured: "max response"
  unit.of.measure: "%"
  numeric.value: -15.4
